Below, each of the sequences is paired with its reported apparent Kd value.
Test system: MS2 coat protein
assay: apparent Kd, MS2 coat protein; higher = weaker binding; RNA-MaP array; FMN 200 µM where present
conditionNotes: ligand present: flavin mononucleotide; designed as: ON switch for flavin mononucleotide

As a guide, the following entries are already answered.
>  <constructSequence>
AACAAAGACACAGGAUAUCCACAAAUACAUGAGGAUCACCCAUGUUCGAAAGGAGAAGGGUGGCACCGGUACAAUCUGGUUAUC

>  <dataValue>
0.0893 µM

$$$$
>  <constructSequence>
CGCAAGUAUACAUGAGGAUCACCCAUGUUUGAUAGGGUUUUCAGAAGGUACAAUUAGAGAUAGAGUAAGGAUAUGAAAUUUGCG

>  <dataValue>
0.0247 µM

$$$$
>  <constructSequence>
AGGCACAUCGGAGGAUAUCAUGUAAAUACAUGAGGAUCACCCAUGUCGAUGGAGACAUCGGAGAUUGAGAAGGCCGAUGUACCG

>  <dataValue>
0.00844 µM

$$$$
>  <constructSequence>
AAGAAACAUGAGGAUCACCCAUGUAAAUUCAAGAGAGGAUAUCGUACAUGGAAGAUUCAACGAGAAGGCUCUAGAA

>  <dataValue>
0.0184 µM

$$$$
>  <constructSequence>
GUAGCUAUCGGAGGAUAUUUAUACCGUAAACGGACAUGAGGAUCACCCAUGUGGCGAAAGCCUUGGGAGAAGGCCGAUAGCUAC

>  <dataValue>
0.00468 µM

$$$$

Entry GGGAGUCUACAUGAGGAUCACCCAUGUGGUCCAGCAGGAACACAGGAUAUCCAAUGAGAUUCUCGGGAGAAGGGUGAAUGCUUA , apparent Kd reported as 0.174 µM

Entry GGACGUCACAUUUACAUGAGGAUCACCCAUGUCGAAAGACAUGAGGAUAUGCUACCUAAUUGGUAGCAGAAGGCAUGGACGUCC ; apparent Kd = 0.228 µM

Query AAUUAAUUAAUACAUGAGGAUCACCCAUGUAAUUAUUAGAUCAAGGAUAUCAGCUCGUUUAGAGCUGAGAAGGUGAUCACAUGU yields apparent Kd of 0.109 µM

get_value(item= UAUUUUAACUAAGGAUAUCUAUAUUAUUUUGAAACAUGAGGAUCACCCAUGUUCAUGGGAUUAUAGGAGAAGGUAGAUGAAUAA , readout=apparent Kd) returns 0.00954 µM

response.value for UUGGACGUCGUAGGAUAUGUAGGAUAUUCCUACAUGAGGAUCACCCAUGUUGACAUGGAAGAAGGACAGAAGGUCGAUGUCCAU (field: apparent Kd) = 0.00986 µM

# apparent Kd (sequence: GUGGUCAGACAUGAGGAUCACCCAUGUGGAAUAAAUAACAGACAGGAUAUUAAAUAUAGGAUAUAUAAGAAGGGUCGAUUGGUG ) is 0.0916 µM

----------
Tested on: MS2 coat protein
assay: apparent Kd, MS2 coat protein; higher = weaker binding; RNA-MaP array; FMN 200 µM where present
conditionNotes: designed as: OFF switch for flavin mononucleotide; no ligand
Catalogue of sequences with associated apparent Kd
Expressed in nM, but write only the number.

>  <constructSequence>
GGAUAGGACCGAGGAUAUACGUGCUAGAGAUACUAGCAAAAUUUCCUCACAUGAGGAUCACCCAUGUAGAAGGCUGUCCUAUCG

>  <attributeMeasured>
apparent Kd

>  <u>
nM

>  <dataValue>
5.78

$$$$

As a next step, examine the sequence that follows.
Entry AAAAAGUGAGGAUAUACGAAAAAAAAAAAAAAAAAAGGUGAACAUGAGGAUCACCCAUGUAGAAGGCACAAAAA , tested on MS2 coat protein, has a reported apparent Kd of 311

----------
System: MS2 coat protein
assay: apparent Kd, MS2 coat protein; higher = weaker binding; RNA-MaP array; FMN 200 µM where present
conditionNotes: designed as: ON switch for flavin mononucleotide; no ligand
Kindly return met if reported apparent Kd is no lower than 300 nM; return not met if it is lower.

Previously resolved entries follow.
>  <constructSequence>
GGUGCACGCACAGGAUAUCCGGCGGAGCUCGUCGGAGAAGGGUGACAUGAGGAUCACCCAUGUACGUGCAACUCAGUUUGAGAG

>  <assaySystem>
MS2 coat protein

>  <answerLabel>
not met

$$$$
>  <constructSequence>
AUAUUCUAGAUAGGAUAUACUGAGGUUGAAUGGGUAGAAGGAUCGUGAGAGUGGACUACAUGAGGAUCACCCAUGUUGUUUAUU

>  <assaySystem>
MS2 coat protein

>  <answerLabel>
not met

$$$$
>  <constructSequence>
GGGUACAUCGGAGGAUAUCAUGUAAAUACAUGAGGAUCACCCAUGUCGAUGGAGACAUCGGAGAUUGAGAAGGCCGAGGUACCG

>  <assaySystem>
MS2 coat protein

>  <answerLabel>
not met

$$$$
>  <constructSequence>
CGCUACUGCCAGAAGGACAUGAGGAUCACCCAUGUAGGAUAUGGGUGACGAGGACCAGUGUAGAGAAACUACGCUACAGUAGCG

>  <assaySystem>
MS2 coat protein

>  <answerLabel>
not met

$$$$
>  <constructSequence>
AACAAAGACACAGGAUAUCCACAAAUACAUGAGGAUCACCCAUGUUCGAAAGGAGAAGGGUGGCACCGGUACAAUCUGGUUAUC

>  <assaySystem>
MS2 coat protein

>  <answerLabel>
not met

$$$$

Reported apparent Kd reaches at least 300 nM for AAUUAAUUAAUACAUGAGGAUCACCCAUGUAAUUAUUAGAUCAAGGAUAUCAGCUCGUUUAGAGCUGAGAAGGUGAUCACAUGU ? met

Hi team, for GCUGUGGCAUGAGGAUAUGGUCACGUUUCGUGACCAGAAGGCAUGUCAAUAGACAUGAGGAUCACCCAUGUAGUUAACACAGCA , is the recorded apparent Kd at or above 300 nM? met

Record GAGUGGAAGGCCGCUACAUGAGGAUCACCCAUGUGCUAAGCACAGGAUAUCGCGCUGGCCCGGCGCGAGAAGGGUGACGGCCUG ; criterion: apparent Kd no lower than 300 nM. Met? met

Record GGAGCUCCCAUUAACAUGAGGAUCACCCAUGUCAAAAGACAUGAGGAUAUGGUACCUAAUUGGUACCAGAAGGCAUGGAGCUCC ; criterion: apparent Kd no lower than 300 nM. Met? met

Form field: apparent Kd at least 300 nM? Entry: GACAUGAGGAUCACCCAUGUCCGGGCCAAAAGAAGAAAUACCAGAAGGACCGGCAGAAAUGAGCGGUAGGAUAUGGGAUUCGUG not met

----------
Tested on: MS2 coat protein
assay: apparent Kd, MS2 coat protein; higher = weaker binding; RNA-MaP array; tryptophan 2.4 mM where present
conditionNotes: designed as: ON switch for tryptophan; no ligand
attributeMeasured: apparent Kd (nM)
// units = nM; emit number, no label

Use these answered entries as a reference point.
>  <constructSequence>
CUUGGCUGUGCGGCCGCCACUGACUCAUCCUGCAUUACAUGAGGAUCACCCAUGUUGCGGCCUCCCAGGACCGGGCAUAGCCUGC

>  <u>
nM

>  <apparent Kd>
390

$$$$
>  <constructSequence>
AACGCGGUGAUGGUAGCCGGACGCUAGGUACGAGGACCGGUACGGCCGCCACUCGGAGUCCUACGACAUGAGGAUCACCCAUGUA

>  <u>
nM

>  <apparent Kd>
127

$$$$

API: the following record is the query input.
MS2 coat protein assay, sequence AGUUUGGACUCGGCCGCCACUCGUGAUGCUUUGGCACAUGAGGAUCACCCAUGUGGUCGGCCUUAGAGGACCGGGAGUACCAGCC , recorded apparent Kd = 405

----------
Entries and their apparent Kd values follow.
Test system: MS2 coat protein
assay: apparent Kd, MS2 coat protein; higher = weaker binding; RNA-MaP array
conditionNotes: ligand present: flavin mononucleotide; designed as: OFF switch for flavin mononucleotide
Just the number in nM, nothing appended.

>  <constructSequence>
UGGCUUGAAGGAUAUACAUGAGGAUCACCCAUGUAUCGCUAAAAGAGAAAUCCAUAAUGUAGAAGGUCAUCCCA

>  <u>
nM

>  <dataValue>
12

$$$$
>  <constructSequence>
ACAUCCACCAAGAAGGCUGGUGCGGCACUUAAGUCGUUCACAUGAGGAUCACCCAUGUCGUAUACAGAGGAUAUUGAGGUUUUC

>  <u>
nM

>  <dataValue>
38.7

$$$$

Lab note: measured apparent Kd of CUAUGGGAUAAGGAUAUAAUAAUUGAGAAGGAGUUAGAAGGUAUAACAUGAGGAUCACCCAUGUGAGGGCCCUA was 9.07

----------
Test system: MS2 coat protein
assay: apparent Kd, MS2 coat protein; higher = weaker binding; RNA-MaP array; tryptophan 2.4 mM where present
conditionNotes: designed as: ON switch for tryptophan; no ligand
attributeMeasured: apparent Kd
Give the value; after it, write the unit.

Recorded results for 2 sequences are shown here.
>  <constructSequence>
CUACAUUUGUAGAAACCGGUCAACAAUAAUCGAGGACCGGUACGGCCGCCACUCGUAUAAUUUAAUACAUGAGGAUCACCCAUGU

>  <assaySystem>
MS2 coat protein

>  <apparent Kd>
14.9 nM

$$$$
>  <constructSequence>
AUAAUAAUCAUGGGUGAAGGUCCUCGCAAACGAGGACCGGUACGGCCGCCACUCGAACAUGAGGAUCACCCAUGUGUGAGGACCU

>  <assaySystem>
MS2 coat protein

>  <apparent Kd>
58.8 nM

$$$$

Reported apparent Kd ( ACGUUGAAGUCGGCCGCCACUGAUUUCAUGUUCAACAUGAGGAUCACCCAUGUACCUUAUGUUAACAGGACCGGGACGUAUACGA ) = 479 nM

Data origin: the EternaBench riboswitch data
